EXPERIMENT DESCRIPTION: Pharmacokinetics and oral bioavailability of D11.2 in male SD rats (IV, PO, SQ)
Type: in vivo
CONDITIONS: rat, in vivo, po, 1 mg/kg, PO 1 mg/kg, Mean
Where a SMILES comes first, the peptide text is derived from it. [ ]: non-standard residue; d: D form. NMeL = CN[C@@H](CC(C)C)C(=O)O; Sar = CNCC(=O)O
VALUE KIND: MRT inf (h)
Write down the numeric answer in h and omit the unit.

INPUT: Endpoint output: MRT inf of CC[C@@H](C)[C@H]1NC(=O)[C@@H]2CCCN2C(=O)[C@@H]([C@H](C)CC)NC(=O)CN(C)C(=O)[C@H](CC(C)C)NC(=O)[C@@H](Cc2ccccc2)NC(=O)[C@H](CC(C)C)N(C)C(=O)[C@H]2CCCN2C(=O)[C@@H](CC(C)C)NC(=O)[C@H](CC(C)C)NC(=O)[C@H]2CCCN2C1=O [Design D11.2] (cyclo(L[Sar][dI]P[dI][dP]L[dL][dP][NMeL][dF])) . Value?
OUTPUT: 3.42

###

CONDITIONS: PAMPA
Where a SMILES comes first, the peptide text is derived from it. [ ]: non-standard residue; d: D form. NMeF = CN[C@@H](Cc1ccccc1)C(=O)O; NMeL = CN[C@@H](CC(C)C)C(=O)O; dNMeL = CN[C@H](CC(C)C)C(=O)O
VALUE KIND: PAMPA_Papp_Avg

CC[C@H](C)[C@@H]1NC(=O)[C@H](C(C)C)NC(=O)[C@@H](CC(C)C)N(C)C(=O)[C@H](Cc2ccccc2)N(C)C(=O)[C@H]2CCCN2C(=O)[C@H](C(C)C)NC(=O)[C@@H](C)NC(=O)[C@H](CC(C)C)N(C)C(=O)[C@H]2CCCN2C(=O)[C@@H](Cc2ccccc2)NC1=O [Design D10.9] (cyclo(I[dF][dP][NMeL][dA]V[dP][NMeF][dNMeL]V))	BQL
CC[C@@H](C)[C@H]1NC(=O)[C@H](CC(C)C)NC(=O)[C@@H](CC(C)C)NC(=O)[C@H](C(C)C)NC(=O)[C@@H]2CCCN2C(=O)[C@H](CC(C)C)N(C)C(=O)[C@@H](CC(C)C)NC(=O)[C@H](Cc2ccccc2)N(C)C(=O)[C@H]2CCCN2C1=O [Design D9.38] (cyclo(L[dI][dP][NMeF][dL][NMeL]PV[dL]))	BQL
CC(C)C[C@@H]1C(=O)N[C@H](C(C)C)C(=O)N[C@@H](C)C(=O)N2CCC[C@H]2C(=O)N2CCC[C@H]2C(=O)N[C@@H](C)C(=O)N2CCC[C@@H]2C(=O)N[C@@H](Cc2ccccc2)C(=O)N2CCC[C@H]2C(=O)N[C@@H](C(C)C)C(=O)N1C [Design D10.53] (cyclo(APPA[dP]FPV[dNMeL][dV]))	BQL
CC(C)C[C@@H]1NC(=O)[C@@H]2CCCN2C(=O)[C@@H](Cc2ccccc2)NC(=O)[C@H](C)N(C)C(=O)[C@H](CC(C)C)NC(=O)[C@H](CC(C)C)N(C)C(=O)[C@@H](C)NC(=O)[C@@H](CC(C)C)NC(=O)[C@@H]2CCCN2C(=O)[C@@H](Cc2ccccc2)NC1=O (single isomer, unassigned) [Design D10.2.p2]	3.60E-07
